test system: COLO 205 colon; test: NCI tumour cell line growth inhibition, 48 h
MEASURED PARAMETER: TGI

entry_smiles=COC(=O)[C@H]1ON2O[C@@H](O[C@H]3CCCC[C@@H]3C(C)(C)c3ccccc3)C[C@@H]3CC[C@H]1[C@@]32C study_target="COLO 205 colon" measured_parameter=TGI measured_value="> 100 µM"
entry_smiles=CCO[C@H]1C[C@@H](c2ccccc2)[C@]2(C)C[C@H](C(=O)OC)ON2O1 study_target="COLO 205 colon" measured_parameter=TGI measured_value="> 100 µM"
entry_smiles=O=C(Nc1ccc2oc(=O)c(C(=O)O)cc2c1)Oc1ccccc1 study_target="COLO 205 colon" measured_parameter=TGI measured_value="> 100 µM"
entry_smiles=Cc1cc(S(=O)(=O)NC#N)c(S/C(=N\Nc2ccc([N+](=O)[O-])cc2)c2ccccc2)cc1Cl study_target="COLO 205 colon" measured_parameter=TGI measured_value="> 100 µM"
entry_smiles=c1ccc2[nH]c(-c3ccc(OCCCCCOc4ccc(-c5nc6ccccc6[nH]5)cc4)cc3)nc2c1 study_target="COLO 205 colon" measured_parameter=TGI measured_value="> 34.5 µM"
entry_smiles=C(/C=N/NC1=NCCN1)=N\NC1=NCCN1 study_target="COLO 205 colon" measured_parameter=TGI measured_value="> 100 µM"

----------
Below is a list of entries, each paired with its recorded TGI value.
system: SK-OV-3 ovarian; test: NCI tumour cell line growth inhibition, 48 h
MEASURED PARAMETER: TGI (µM)

compound="C=C1C(C[C@@H]2O[C@H]3C[C@H]4O[C@@]5(C[C@@H]6O[C@]7(C[C@H](C)[C@@H]8O[C@@H]9CC(C(O)CO)O[C@@H]9C[C@@H]8O7)C[C@H](C)[C@@H]6O5)C[C@H]4O[C@H]3[C@H](C)[C@H]2O)O[C@@H](CC[C@@H]2O[C@@H](CC[C@@]34CC5O[C@H]6C(O[C@H]7CC[C@H](CC(=O)OC)O[C@@H]7[C@@H]6O3)[C@H]5O4)CC2=C)C[C@H]1C (stereo partly specified)" qualifier_sign=> measured_value=1
compound="C=CCN1C(=O)/C(=C/c2cccs2)N=C1SC1OC(COC(=O)c2ccccc2)C(OC(=O)c2ccccc2)C1OC(=O)c1ccccc1 (stereo unspecified)" qualifier_sign=> measured_value=100
compound=O=[N+]([O-])c1cc(Br)cc2c1[nH]c1ccc(Br)cc12 qualifier_sign== measured_value=15.4
compound="CCOP(=O)(OCC)C(Cc1ccccc1)N=C(c1ccccc1)c1ccccc1 (stereo unspecified)" qualifier_sign== measured_value=28.5
compound=N#CC(C#N)=CN1CCN(C(=O)c2ccccc2)C1=S qualifier_sign=> measured_value=100
compound=O=C(COC(=O)c1ccccc1)c1ccc(Br)cc1 qualifier_sign== measured_value=33.3
compound=COc1ccccc1/C=C1/Sc2scc(CC(=O)Nc3ccccc3)[n+]2C1=O qualifier_sign== measured_value=71.7
compound=Cc1cc(N/N=C/c2nc(-c3ccccc3)oc2C)c2cc(Cl)ccc2n1 qualifier_sign== measured_value=3.29
compound=CC(C)(N=NC(C)(C)C1=NCCN1)C1=NCCN1 qualifier_sign=> measured_value=100
compound="CCOC(=O)NNC1(SC)NC(=O)c2c(cc(Cl)oc2=O)O1 (stereo unspecified)" qualifier_sign== measured_value=26.8
compound=Cc1ccc(NS(=O)(=O)c2cc(C)ccc2C)cc1 qualifier_sign== measured_value=21.3

----------
List of TGI values.
system: T-47D breast; test: NCI tumour cell line growth inhibition, 48 h
MEASURED PARAMETER: TGI

compound=O=C1CNc2cc(N3CCN(c4cccc(C(F)(F)F)c4)CC3)ccc2N1 study_target="T-47D breast" measured_value="> 100 µM"
compound=OCCCN(CCc1ccc(Cl)c(Cl)c1)CCN1CCCC1 study_target="T-47D breast" measured_value="> 100 µM"
compound="CCOP(=O)(OCC)C(Cc1ccccc1)N=C(c1ccccc1)c1ccccc1 (configuration not stated)" study_target="T-47D breast" measured_value="26.6 µM"
compound=COc1cccc(/C=C/C(=O)c2cc3c(N)c(C(=O)Nc4cccc(Cl)c4C)sc3nc2C)c1 study_target="T-47D breast" measured_value="7.82 µM"
compound=O=C(O)c1ccc(NS(=O)(=O)c2cccc3cccnc23)cc1 study_target="T-47D breast" measured_value="> 100 µM"
compound=COc1ccc(C2=C(c3cn(C)c4ccccc34)C(=O)NC2=O)cc1OC study_target="T-47D breast" measured_value="> 25 µM"
compound=Cc1ccc(C(=O)N/N=C/c2cccc(Oc3ccccc3)c2)cn1 study_target="T-47D breast" measured_value="> 74.3 µM"
compound=CCOC(=O)c1ccc(Nc2nc3ccc(C(F)(F)F)cc3nc2-c2ccccc2)cc1 study_target="T-47D breast" measured_value="87.1 µM"
compound=Cc1c(CN2CCC(Nc3ncnc4sc(CC(F)(F)F)cc34)CC2)ccc2c1cc(C#N)n2Cc1cn[nH]c1 study_target="T-47D breast" measured_value="16.9 µM"
compound=CCOC(=O)/C=C/[C@H](O[Si](c1ccccc1)(c1ccccc1)c1ccccc1)C(C)(C)C study_target="T-47D breast" measured_value="> 31.6 µM"
compound=CNC=O study_target="T-47D breast" measured_value="> 10000 µM"
compound=CCOC(=O)c1cc2cc(CSc3ccccc3)ccc2oc1=O study_target="T-47D breast" measured_value="> 100 µM"

----------
tested on: SNB-75 CNS; test: NCI tumour cell line growth inhibition, 48 h
GI50 values, listed per item
MEASURED PARAMETER: GI50

compound=CCS(=O)(=O)c1ccc(OC)c(Nc2nccc(N(C)c3ccc4c(C)[nH]nc4c3)n2)c1 measured_value="2.94 µM"
compound=c1ccc2[nH]c(-c3ccc(OCCCCCOc4ccc(-c5nc6ccccc6[nH]5)cc4)cc3)nc2c1 measured_value="1.91 µM"
compound="Clc1cc(Cl)cc(N2N=C(c3cccc(Nc4ccncc4)c3)CC2c2ccc(Br)cc2)c1 (stereo not drawn)" measured_value="1.42 µM"

----------
system: SK-MEL-2 melanoma; assay: NCI tumour cell line growth inhibition, 48 h
MEASURED PARAMETER: TGI

compound=Cc1ccc2c(=O)[nH]sc2c1 study_target="SK-MEL-2 melanoma" measured_value="> 100 µM"
compound=COc1ccc(C2=C(c3cn(C)c4ccccc34)C(=O)NC2=O)cc1OC study_target="SK-MEL-2 melanoma" measured_value="> 18.6 µM"
compound=N#Cc1nsnc1-c1nc(-c2nsnc2C#N)nc(-c2nsnc2C#N)n1 study_target="SK-MEL-2 melanoma" measured_value="> 100 µM"
compound=COc1cc(/C=C2\CCc3cc(OC)c(OC)cc3C2=O)cc(OC)c1 study_target="SK-MEL-2 melanoma" measured_value="> 57.8 µM"
compound=O=C(CNC(=O)c1cccc2ccccc12)Nc1ccccc1Oc1ccccc1 study_target="SK-MEL-2 melanoma" measured_value="> 10 µM"
compound="N#CSCC1CC(O)(c2ccccc2)C(c2ccccc2)C(c2ccc(F)cc2)O1 (configuration not stated)" study_target="SK-MEL-2 melanoma" measured_value="7.78 µM"
compound=Cc1ccc(-c2c(C#N)c(S)n(NS(=O)(=O)c3ccccc3)c(=O)c2C#N)cc1 study_target="SK-MEL-2 melanoma" measured_value="> 100 µM"

----------
tested on: 786-0 renal; assay: NCI tumour cell line growth inhibition, 48 h
MEASURED PARAMETER: TGI

compound=CC(=S)NNC(=O)c1ccncc1 measured_value="> 100 µM"
compound=NNC(=O)CCCCCCCC(=O)O measured_value="> 100 µM"
compound="CO/N=C1/C(n2[nH]c(=O)n(-c3ccccc3)c2=O)C2C=CC1n1c(=O)n(-c3ccccc3)c(=O)n12 (stereo not drawn)" measured_value="> 100 µM"
compound=O=C(Nc1ccc(Nc2ccncc2)cc1)c1ccc(Nc2ccnc3ccc([N+](=O)[O-])cc23)cc1 measured_value="> 100 µM"
compound=c1cncc(C(Nc2cccc3cccnc23)Nc2cccc3cccnc23)c1 measured_value="> 100 µM"
compound=CCCCC(=O)[O-].N.N.N.N.N.[Co+3].[O-][Cl+3]([O-])([O-])[O-] measured_value="> 100 µM"
compound=CCOC(=O)c1c(NC(=O)c2ccccc2)sc2c1CCC2 measured_value="> 100 µM"
compound=CCC(/C=C/c1ccccc1)=N\NC(=S)N/N=C(/C=C/c1ccccc1)CC measured_value="> 100 µM"
compound=c1ccc(-c2cc(-c3cc(-c4ccccc4)n[nH]3)[nH]n2)cc1 measured_value="> 100 µM"
compound=N#Cc1nc(Cc2ccccc2)oc1N measured_value="> 100 µM"
compound=O=C(CNC(=O)c1cccc2ccccc12)Nc1ccccc1Oc1ccccc1 measured_value="> 10 µM"
compound="CC1=NN(C(=O)CC(=O)Nc2cccc(Cl)c2)C(=O)C1N=Nc1ccc(S(=O)(=O)c2ccc(N=NC3C(=O)N(C(=O)CC(=O)Nc4cccc(Cl)c4)N=C3C)cc2)cc1 (stereo not drawn)" measured_value="> 100 µM"
compound="O=S(=O)(NC(c1ccccc1)(c1cc2ccccc2[nH]1)c1cc2ccccc2n1S(=O)(=O)c1ccccc1)c1ccccc1 (stereo not drawn)" measured_value="> 100 µM"
